# Tested on: TDF;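 also: TDF is a line of transformed human dermal fibroblasts of mesenchymal origin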
# experimentNotes: H1.0 immunofluorescence intensity relative to DMSO (% of DMSO); higher = stronger H1.0 induction, active = 120 or more
# setupConditions: concentration: 10 µM; 24 h
Labels: T = active, F = inactive

- compound: "NS(=O)(=O)c1ccc(S(=O)(=O)Nc2cccc3c(Cl)c[nH]c23)cc1 [N~1~-(3-chloro-1H-indol-7-yl)-1,4-benzenedisulfonamide]"
  cat: "F"
- compound: "CCN(CC)C(=S)SSC(=S)N(CC)CC [Disulfiram]"
  cat: "T"
- compound: "NCC1OC(OC2C(N)CC(N)C(OC3OC(CO)C(O)C(N)C3O)C2O)C(N)CC1O (centres undefined) [Tobramycin (free base)]"
  cat: "F"
- compound: "CC(O)CCCC(O)C=CC1C(O)CC(=O)C1CC=CCCCC(=O)O [19(R)-Hydroxy-prostaglandin E2]"
  cat: "F"
- compound: "CC(C(=O)O)c1ccc(CC2CCCC2=O)cc1 (centres undefined)"
  cat: "F"
- compound: "CCCCCC#CCC#CCC#CCC#CCCCC(=O)O"
  cat: "F"
- compound: "COc1ccc(C2Sc3ccccc3N(CCN(C)C)C(=O)C2OC(C)=O)cc1 (centres undefined)"
  cat: "F"
- compound: "Cl.NCC1OC(C23CC4CC(CC(C4)C2)C3)Cc2c1ccc(O)c2O (centres undefined)"
  cat: "F"
- compound: "N[C@H](CCC(=O)NCS(=O)(=O)O)C(=O)O"
  cat: "F"
- compound: "CCCNCC(O)COc1ccccc1C(=O)CCc1ccccc1 (centres undefined)"
  cat: "F"
- compound: "O=C1CCCC(=O)C1C(=O)c1ccc(C(F)(F)F)cc1[N+](=O)[O-] [2-[2-nitro-4-(trifluoromethyl)benzoyl]-1,3-cyclohexanedione]"
  cat: "F"
- compound: "C[C@]12CCC(=O)C=C1CC[C@@H]1[C@@H]2[C@@H](O)C[C@@]2(C)[C@H]1CC[C@]2(O)C(=O)COC(=O)CCC(=O)[O-].[Na+]"
  cat: "F"
- compound: "COCC(=O)OC1(CCN(C)CCCc2nc3ccccc3[nH]2)CCc2cc(F)ccc2C1C(C)C.Cl.Cl (centres undefined) [Mibefradil dihydrochloride]"
  cat: "F"
- compound: "CON(C)C(=O)[C@H](O)[C@H](Cc1ccccc1)NC(=O)c1cc2cc(Cl)ccc2[nH]1"
  cat: "F"
- compound: "CC(C=CC1=C(C)CCCC1(C)C)=CC=CC(C)=CC(=O)Nc1ccc(O)cc1 [Fenretinide]"
  cat: "F"
- compound: "NCC1CCC(C(=O)O)CC1 (centres undefined)"
  cat: "F"
- compound: "CC(C)[N+](C)(CCOC(=O)C1c2ccccc2Oc2ccccc21)C(C)C.[Br-] [Propantheline bromide]"
  cat: "F"
- compound: "COc1ccc(CN(CCN(C)C)c2ccccn2)cc1.O=C(O)C=CC(=O)O [Pyrilamine maleate]"
  cat: "F"
- compound: "O=P(O)(O)C(Cl)(Cl)P(=O)(O)O"
  cat: "F"
- compound: "CC(C)COCC(CN(Cc1ccccc1)c1ccccc1)N1CCCC1.Cl (centres undefined) [Bepridil hydrochloride]"
  cat: "F"
- compound: "CCCCCCCCCCCCCCCCCCc1ccc(C(=O)/C=C/C(=O)O)cc1"
  cat: "F"
- compound: "CCCCCCCOc1cc2c(cc1/C(C)=C/c1ccc(C(=O)O)cc1)C(C)(C)CCS2(=O)=O"
  cat: "F"
- compound: "CN1C(CC(=O)c2ccccc2)CCCC1CC(O)c1ccccc1.Cl (centres undefined)"
  cat: "F"
- compound: "O=c1cc(N2CCNCC2)oc2c(-c3ccccc3)cccc12"
  cat: "F"
- compound: "CCOC(=O)C(CCc1ccccc1)NC(C)C(=O)N1Cc2ccccc2CC1C(=O)O (centres undefined)"
  cat: "F"
- compound: "CS(=O)(=O)O.C[C@H](NCc1ccc(OCc2cccc(F)c2)cc1)C(N)=O"
  cat: "F"
- compound: "COC(=O)C(c1ccccc1Cl)N1CCc2sccc2C1 (centres undefined)"
  cat: "F"
- compound: "Cn1c2ccccc2c2c3c(c4c5ccccc5n(CCC#N)c4c21)CNC3=O"
  cat: "F"
- compound: "COc1ccc(C(C)=O)c(O)c1"
  cat: "F"
- compound: "Nc1ncn(C2OC(CO)C(O)C2O)c(=O)n1 (centres undefined)"
  cat: "F"
- compound: "CCCCCCCCCCCCCCCCCC(=O)OC(CC(=O)O)C[N+](C)(C)C.[Cl-] (racemic) [DL-Stearoylcarnitine chloride]"
  cat: "T"
- compound: "COc1cc(C=CC(=O)c2ccc(O)cc2O)ccc1O"
  cat: "F"
- compound: "CC(=O)OCC1(O)CC23CCC4c5ccoc5CCC4(C)C2CCC1C3 (centres undefined) [Cafestol acetate]"
  cat: "F"
- compound: "O=S(=O)(c1cccc2cnccc12)N1CCCNCC1"
  cat: "F"
